Target: Neuropeptides B/W receptor type 1 (Homo sapiens) (UniProt P48145)
Sequence (P48145 whole entry, looked up): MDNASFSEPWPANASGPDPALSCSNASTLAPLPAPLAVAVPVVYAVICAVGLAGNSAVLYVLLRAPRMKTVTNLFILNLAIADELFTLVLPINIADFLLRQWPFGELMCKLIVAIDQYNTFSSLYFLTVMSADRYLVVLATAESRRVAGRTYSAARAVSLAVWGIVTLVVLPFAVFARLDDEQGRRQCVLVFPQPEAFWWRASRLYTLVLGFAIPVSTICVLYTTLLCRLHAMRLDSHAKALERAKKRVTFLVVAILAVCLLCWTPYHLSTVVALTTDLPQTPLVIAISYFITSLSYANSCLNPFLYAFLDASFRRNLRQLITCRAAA
Test: blockers of human neuropeptide B/W receptor 1 – cell-based, fluorescence, single concentration, primary screen (AID 1861);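 also: cells stimulated with the agonist NPW; 0% = agonist with vehicle and 100% = vehicle without agonist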
Settings: GPR7-expressing cells, fluorescence antagonist assay; at 4.4 µM; stronger effect = higher value
In all, about 290,000 compounds went through this assay and about 3,100 (1.1%) were called active. The entries come from a sample that favours actives as a whole.
Below, each of the molecules is paired with its reported inhibition value.
All answers are understood in %, so give the number only.

Look over these answered cases.
Would you kindly share the measured inhibition for COc1ccc(CNCCc2ccc3c(c2)OCO3)c(OC)c1OC ? 18.9

What do you get for Cc1ccnc(-n2c(C)cc(/C=C3\C(=O)NC(=S)N(C)C3=O)c2C)c1 ? -2.63

What do you get for CCOc1ccc(-c2cc(C)[n+](CCN(CC)CC)c(-c3ccc(OCC)cc3)c2)cc1 ? 24.6

What do you get for CCN1CCN(Cc2cc(OC)c3c(c2)OCO3)CC1 ? -5.46

What do you get for CCCCCCN=C(CC)c1c(O)n(CCCC)c(=O)[nH]c1=O ? -13.1

Here is the next item to consider.
Would you kindly share the measured inhibition for COC(=O)N(c1ccc(OC)cc1)P1(=S)OCCC(C)O1 (stereo unspecified) ? -1.86

---

Molecular target: Neuropeptides B/W receptor type 1 (Homo sapiens)
Experiment: blockers of human neuropeptide B/W receptor 1 – cell-based, fluorescence, single concentration, primary screen (AID 1861);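 also: cells stimulated with the agonist NPW; 0% = agonist with vehicle and 100% = vehicle without agonist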
Settings: GPR7-expressing cells, fluorescence antagonist assay; at 4.4 µM
Among all 290,000 compounds or so, about 3,100 (1.1%) were called active. Rule as the data show it: active = inhibition above about 16% (passing the limit was not always enough); inactive = the rest. The sample holds actives, similar compounds and a random draw of the others, so the mix is not that of the screen.
Your reply should match one of these outcome classes. 1 = active, 0 = inactive

Sample answers from the record:
# outcome recorded in this test, key = Cc1c(Oc2cc(NN3CCCCC3)c([N+](=O)[O-])cc2[N+](=O)[O-])cccc1[N+](=O)[O-] 0

What do you get for COc1cc2nc(N3CCN(C(=O)[C@@H]4CCCO4)CC3)nc(N)c2cc1OC ? 0

What do you get for CCOC(=O)C1(CCc2ccccc2)CCN(Cc2ccco2)CC1 ? 0

Now examine the next entry.
# outcome recorded in this test, key = CCOC(=O)C1(Cc2ccc(Cl)cc2)CCN(C(C)CCn2cccn2)CC1 (centres undefined) 1
